# assay-procedure: Pharmacokinetics of AT-56 in plasma
# Format: in vivo, C57BL/6 mice
# assay-context: male, C57BL/6, mouse, iv, 2 mg/kg, tmax, mice

- smiles-data: "C1=Cc2ccccc2C(=C2CCN(CCCCc3nn[nH]n3)CC2)c2ccccc21"
  Tmax: "4.8 min"

====

# assay-procedure: Pharmacokinetics of AT-56 in plasma
# Type: in vivo, C57BL/6 mice
# assay-context: male, C57BL/6, mouse, po, 10 mg/kg
measure-name: bioavailability (%)

- compound: "C1=Cc2ccccc2C(=C2CCN(CCCCc3nn[nH]n3)CC2)c2ccccc21 [AT-56]"
  test-result: 82

====

# assay-target: recombinant mouse L-PGDS C89A/C186A mutant (Mus musculus, UniProt O09114, C186A/C89A)
# Sequence (O09114 23-189 C89A/C186A): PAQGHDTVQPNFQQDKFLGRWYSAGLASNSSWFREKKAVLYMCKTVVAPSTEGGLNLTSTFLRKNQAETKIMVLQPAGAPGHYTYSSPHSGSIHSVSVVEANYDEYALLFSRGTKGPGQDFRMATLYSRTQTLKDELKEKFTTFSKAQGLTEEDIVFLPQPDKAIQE
# assay-procedure: biochemical
pKi: −log10 of the molar value.

- smiles-data: "C1=Cc2ccccc2C(=C2CCN(CCCCc3nn[nH]n3)CC2)c2ccccc21"
  pKi: 4.12

====

# assay-procedure: Pharmacokinetics of AT-56 in plasma
# Assay type: in vivo, C57BL/6 mice
# assay-context: male, C57BL/6, mouse, po, 10 mg/kg

- molecule: "C1=Cc2ccccc2C(=C2CCN(CCCCc3nn[nH]n3)CC2)c2ccccc21 [AT-56]"
  AUC: "8950 ng·h/mL"

====

# assay-procedure: Pharmacokinetics of AT-56 in plasma
# Type: in vivo, C57BL/6 mice
# assay-context: male, C57BL/6, mouse, po, 10 mg/kg

- compound: "C1=Cc2ccccc2C(=C2CCN(CCCCc3nn[nH]n3)CC2)c2ccccc21 [AT-56]"
  half-life / h: 1.71

====

# assay-procedure: Pharmacokinetics of AT-56 in plasma
# Format: in vivo, C57BL/6 mice
# assay-context: male, C57BL/6, mouse, iv, 2 mg/kg

- smiles-data: "C1=Cc2ccccc2C(=C2CCN(CCCCc3nn[nH]n3)CC2)c2ccccc21"
  C0 (ng/mL): 860

====

# assay-target: recombinant mouse L-PGDS C89A/C186A mutant (Mus musculus, UniProt O09114, C186A/C89A)
# assay-procedure: biochemical
pIC50: −log10 of the molar value.

- smiles-data: "C1=Cc2ccccc2C(=C2CCN(CCCCc3nn[nH]n3)CC2)c2ccccc21"
  pIC50: 4.02

====

# assay-procedure: Maximum solubility in aqueous solution
# Type: physicochemical
# assay-context: 10% DMSO
measure-name: solubility (µM)

- molecule: "C1=Cc2ccccc2C(=C2CCN(CCCCc3nn[nH]n3)CC2)c2ccccc21 [AT-56]"
  test-result: 260

====

# assay-procedure: Pharmacokinetics of AT-56 in plasma
# Format: in vivo, C57BL/6 mice
# assay-context: male, C57BL/6, mouse, iv, 2 mg/kg
measure-name: AUC (ng·h/mL)

- smiles-data: "C1=Cc2ccccc2C(=C2CCN(CCCCc3nn[nH]n3)CC2)c2ccccc21"
  measure-name: "AUC"
  test-result: 1280

====

# assay-procedure: Pharmacokinetics of AT-56 in plasma
# Type: in vivo, C57BL/6 mice
# assay-context: male, C57BL/6, mouse, po, 10 mg/kg, tmax, per os, mice
measure-name: Tmax

- smiles-data: "C1=Cc2ccccc2C(=C2CCN(CCCCc3nn[nH]n3)CC2)c2ccccc21"
  test-result: "30 min"

====

# assay-procedure: Pharmacokinetics of AT-56 in plasma
# Assay type: in vivo, C57BL/6 mice
# assay-context: male, C57BL/6, mouse, po, 10 mg/kg

- smiles-data: "C1=Cc2ccccc2C(=C2CCN(CCCCc3nn[nH]n3)CC2)c2ccccc21"
  concentration at 12 h: "< 0.4 ng/mL"
